Test details: NCI Yeast Anticancer Drug Screen. Data for the sgs1 mgt1 strain (AID 161);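 also: 0% = growth of cultures given vehicle only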
Conditions: S. cerevisiae sgs1 mgt1 strain, at 50.0 µM, hits give high values
About 79,000 compounds went through this panel and 15% of them were active in at least one assay; those are over-represented in the sample as a whole.
Reported endpoint: growth inhibition (%)
Please respond with the number in % and leave the unit unwritten.

Past entries and their recorded results:
The recorded growth inhibition for `Brc1cc(Br)cc(-c2nnc(-c3ccc4ccccc4c3)o2)c1` is -2.45

The recorded growth inhibition for `CSc1ccc(NC(=O)Nc2cc(Cl)c(Cl)cc2C)cc1` is 46.8

The recorded growth inhibition for `O=c1[nH]cc(O)c(=O)[nH]1` is -8.95

The recorded growth inhibition for CC1(O)CC(C(F)(F)F)(C(F)(F)F)OC1=O (centres undefined) is -7.75

The recorded growth inhibition for `CCOCC(OCC)OCC` is -2.55

The recorded growth inhibition for `C[CH2][Sn]([CH2]C)([O]C(=O)c1ccc(OC)c(OC)c1OC)[O]C(=O)c1ccc(OC)c(OC)c1OC` is 24.6

More entries:
The recorded growth inhibition for COc1ccc(C)cc1N=NC1C(=O)N(C(=O)CC(=O)Nc2ccccc2OC)N=C1c1ccccc1 (centres undefined) is -7.4

The recorded growth inhibition for NC(CCC1CCCCC1)C(=O)O (centres undefined) is 0.5

The recorded growth inhibition for `Cc1nc2cccc([N+](=O)[O-])c2n1CCCN(C)C` is 11.9

The recorded growth inhibition for OC1COC(c2ccccc2)OC1C(O)C1OC(c2ccccc2)OCC1O (centres undefined) is 12.2

The recorded growth inhibition for Nc1ccc(C(C(=O)O)c2ccccc2)cc1Cl (centres undefined) is 20.9

The recorded growth inhibition for `Nc1nc(CCC(=O)O)cs1` is 4.9

The recorded growth inhibition for `Cc1cc(=O)n(-c2ccc([N+](=O)[O-])cc2)c(C)c1C(=O)O` is 4.85

The recorded growth inhibition for `OCc1ccc(F)cc1CO` is -2.85

The recorded growth inhibition for `CCNc1ccc(-c2ccc(NCC)cc2)cc1` is 26

The recorded growth inhibition for `Clc1c2ncccc2cc2n[nH]nc12` is 24
